test system: P-388 leukemia; assay: In vivo antitumor activity against P-388 lymphocytic leukemia in CDF1 mice; settings: three injections ip, q4d 1, 5, 9
Starred links: 1 amine or outer side, 2 acyl side, 3 side chain; linkers in the order of their positions; H or OH if unused. Positions of bridges follow the written chain, without caps; N, C: chain ends. Non-standard residues stand in square brackets, D forms with d. Residues, ends and D or L forms follow the SMILES beside them. Chains are numbered I, II in the order given. Actinocin(9to1) = Cc1c2oc3c(C)ccc(C(=O)[*:1])c3nc-2c(C(=O)[*:2])c(N)c1=O; NMeV = CN[C@H](C(=O)O)C(C)C; Sar = CNCC(=O)O
measurement_type: therapeutic index: MTD/MED
# respond with the number and nothing more

Recorded therapeutic index: MTD/MED, per entry:
>>> reported_measurement("Cc1c2oc3c(C)c(OCC4CO4)cc(C(=O)N[C@@H]4C(=O)N[C@H](C(C)C)C(=O)N5CCC[C@H]5C(=O)N(C)CC(=O)N(C)[C@@H](C(C)C)C(=O)O[C@@H]4C)c3nc-2c(C(=O)N[C@@H]2C(=O)N[C@H](C(C)C)C(=O)N3CCC[C@H]3C(=O)N(C)CC(=O)N(C)[C@@H](C(C)C)C(=O)O[C@@H]2C)c(N)c1=O (stereo partly shown)")
72
>>> reported_measurement("Cc1c2oc3c(C)ccc(C(=O)N[C@@H]4C(=O)N[C@H](C(C)C)C(=O)N5CCC[C@H]5C(=O)N(C)CC(=O)N(C)[C@@H](C(C)C)C(=O)O[C@@H]4C)c3nc-2c(C(=O)N[C@@H]2C(=O)N[C@H](C(C)C)C(=O)N3CCC[C@H]3C(=O)N(C)CC(=O)N(C)[C@@H](C(C)C)C(=O)O[C@@H]2C)c(N)c1=O [Compound 1b, Actinomycin D, reference compound] (I: T[dV]P[Sar][NMeV] / II: T[dV]P[Sar][NMeV]; ester I:1-I:C, II:1-II:C; linker I:N-II:N via Actinocin(9to1))")
4
>>> reported_measurement("Cc1c2oc3c(C)c(O)cc(C(=O)N[C@@H]4C(=O)N[C@H](C(C)C)C(=O)N5CCC[C@H]5C(=O)N(C)CC(=O)N(C)[C@@H](C(C)C)C(=O)O[C@@H]4C)c3nc-2c(C(=O)N[C@@H]2C(=O)N[C@H](C(C)C)C(=O)N3CCC[C@H]3C(=O)N(C)CC(=O)N(C)[C@@H](C(C)C)C(=O)O[C@@H]2C)c(N)c1=O [Compound 2b, 7-hydroxyactinomycin D, reference compound]")
15

Attention now shifts to the item below.
I'm curious: which therapeutic index: MTD/MED was measured for Cc1c2oc3c(C)c(OCC(O)CO)cc(C(=O)N[C@@H]4C(=O)N[C@H](C(C)C)C(=O)N5CCC[C@H]5C(=O)N(C)CC(=O)N(C)[C@@H](C(C)C)C(=O)O[C@@H]4C)c3nc-2c(C(=O)N[C@@H]2C(=O)N[C@H](C(C)C)C(=O)N3CCC[C@H]3C(=O)N(C)CC(=O)N(C)[C@@H](C(C)C)C(=O)O[C@@H]2C)c(N)c1=O (stereo partly shown) [Compound 4b, 7-(2,3-Dihydroxypropoxy) actinomycin D] tested on P-388 leukemia?
12

----------
test system: DNA; assay: Thermal denaturation of DNA (ΔTm), stabilization of DNA helical structure on drug binding; set-up: species or system calf thymus; settings: thermal denaturation, words
Starred links: 1 amine or outer side, 2 acyl side, 3 side chain; linkers in the order of their positions; H or OH if unused. Positions of bridges follow the written chain, without caps; N, C: chain ends. Non-standard residues stand in square brackets, D forms with d. Residues, ends and D or L forms follow the SMILES beside them. Chains are numbered I, II in the order given. Actinocin(9to1) = Cc1c2oc3c(C)ccc(C(=O)[*:1])c3nc-2c(C(=O)[*:2])c(N)c1=O; NMeV = CN[C@H](C(=O)O)C(C)C; Sar = CNCC(=O)O
measurement_type: DNA melting profile / ΔTm character of the DNA complex

>>> reported_measurement("Cc1c2oc3c(C)c(OCC(O)CO)cc(C(=O)N[C@@H]4C(=O)N[C@H](C(C)C)C(=O)N5CCC[C@H]5C(=O)N(C)CC(=O)N(C)[C@@H](C(C)C)C(=O)O[C@@H]4C)c3nc-2c(C(=O)N[C@@H]2C(=O)N[C@H](C(C)C)C(=O)N3CCC[C@H]3C(=O)N(C)CC(=O)N(C)[C@@H](C(C)C)C(=O)O[C@@H]2C)c(N)c1=O (stereo partly shown) [Compound 4b, 7-(2,3-Dihydroxypropoxy) actinomycin D]")
"sharp and smooth"
>>> reported_measurement("Cc1c2oc3c(C)ccc(C(=O)N[C@@H]4C(=O)N[C@H](C(C)C)C(=O)N5CCC[C@H]5C(=O)N(C)CC(=O)N(C)[C@@H](C(C)C)C(=O)O[C@@H]4C)c3nc-2c(C(=O)N[C@@H]2C(=O)N[C@H](C(C)C)C(=O)N3CCC[C@H]3C(=O)N(C)CC(=O)N(C)[C@@H](C(C)C)C(=O)O[C@@H]2C)c(N)c1=O [Compound 1b, Actinomycin D, reference compound] (I: T[dV]P[Sar][NMeV] / II: T[dV]P[Sar][NMeV]; ester I:1-I:C, II:1-II:C; linker I:N-II:N via Actinocin(9to1))")
"sharp and smooth"
>>> reported_measurement("Cc1c2oc3c(C)c(O)cc(C(=O)N[C@@H]4C(=O)N[C@H](C(C)C)C(=O)N5CCC[C@H]5C(=O)N(C)CC(=O)N(C)[C@@H](C(C)C)C(=O)O[C@@H]4C)c3nc-2c(C(=O)N[C@@H]2C(=O)N[C@H](C(C)C)C(=O)N3CCC[C@H]3C(=O)N(C)CC(=O)N(C)[C@@H](C(C)C)C(=O)O[C@@H]2C)c(N)c1=O [Compound 2b, 7-hydroxyactinomycin D, reference compound]")
"sharp and smooth"

Sourced from patent US4514330A
